For each entry below, report its Cell number value.
test system: HUVE cells; experiment: Angiogenin-induced proliferation of HUVE cells; format: cell-based, human; settings: aminoglycoside 100 μM, without angiogenin; none: 52,000 ± 100

chemical_structure | assayed_target | observed
[H]/N=C(/N)N[C@H]1[C@H](O)[C@@H](O)[C@H](O[C@@H]2O[C@@H](C)[C@](O)(C=O)[C@H]2O[C@@H]2O[C@@H](CO)[C@H](O)[C@@H](O)[C@@H]2NC)[C@@H](N/C(N)=N\[H])[C@@H]1O | HUVE cells | 51,900 ± 1,300
NCC[C@H](O)C(=O)N[C@@H]1C[C@H](N)[C@@H](O[C@H]2O[C@H](CN)[C@@H](O)[C@H](O)[C@H]2O)[C@H](O)[C@H]1O[C@H]1O[C@H](CO)[C@@H](O)[C@H](N)[C@H]1O | HUVE cells | 51,700 ± 200
NC[C@@H]1O[C@H](O[C@H]2[C@@H](O)[C@H](O[C@@H]3[C@@H](O)[C@H](N)C[C@H](N)[C@H]3O[C@H]3O[C@H](CO)[C@@H](O)[C@H](O)[C@H]3N)O[C@@H]2CO)[C@H](N)[C@@H](O)[C@@H]1O | HUVE cells | 50,900 ± 500

Proceed to the following item.
Task: // lookup Cell number for NC[C@H]1O[C@H](O[C@H]2[C@H](O)[C@@H](O[C@H]3O[C@H](CO)[C@@H](O)[C@H](N)[C@H]3O)[C@H](N)C[C@@H]2N)[C@H](O)[C@@H](O)[C@@H]1O
Result: 48,800 ± 400
